- Tested on: Purkinje fiber of the right ventricular free wall (myocardial action potential)
- test.method.notes: Influence on myocardial action potential duration time (APD75), isolated right ventricular free wall, microelectrode in Purkinje fiber
- Assay type: cell-based, dog
- condition.description: Canis lupus familiaris, 20 min, 3.0 μg/ml, 20 minutes' incubation, (B-A)/A×100, read-out: APD75 (%)
Structures can show the parent of a compound that is named as a salt.
Short version: activation at 3 µg/mL at least 20% is 1 (yes), less is 0 (no).

Is activation at 3 µg/mL at least 20%? Consider Cn1c(N2CCN(CCCOc3ccc([N+](=O)[O-])cc3C(=O)c3ccccc3O)CC2)cc(=O)n(C)c1=O
0 (no)

Is activation at 3 µg/mL at least 20%? Consider COC(=O)CN(CCCNc1ccc([N+](=O)[O-])cc1)CCNc1cc(=O)n(C)c(=O)n1C [Compound 166, hydrochloride]
0 (no)

Is activation at 3 µg/mL at least 20%? Consider Cn1c(NCCN(CCCc2ccc([N+](=O)[O-])cc2)CCOC(=O)c2ccccc2)cc(=O)n(C)c1=O [Compound 168, oxalate]
1 (yes)

Is activation at 3 µg/mL at least 20%? Consider Cn1c(N2CCN(CCc3ccc(C(=O)c4ccccc4)cc3[N+](=O)[O-])CC2)cc(=O)n(C)c1=O [Compound 137, oxalate]
1 (yes)

Is activation at 3 µg/mL at least 20%? Consider CC(=O)c1cc([N+](=O)[O-])ccc1OCCCN1CCN(c2cc(=O)n(C)c(=O)n2C)CC1 [Compound 76, oxalate]
1 (yes)

Is activation at 3 µg/mL at least 20%? Consider COC(=O)c1ccc(OCCCN2CCN(c3cc(=O)n(C)c(=O)n3C)CC2)c([N+](=O)[O-])c1 [Compound 154, oxalate]
0 (no)

Is activation at 3 µg/mL at least 20%? Consider Cn1c(N2CCN(CCCc3ccc([N+](=O)[O-])cc3)CC2)cc(=O)n(C)c1=O [Compound 33, oxalate]
1 (yes)

* * *

- Tested on: Purkinje fiber of the right ventricular free wall (myocardial action potential)
- test.method.notes: Influence on myocardial action potential duration time (APD75), isolated right ventricular free wall, microelectrode in Purkinje fiber
- Assay type: cell-based, dog
- condition.description: Canis lupus familiaris, 20 min, 3.0 μg/ml, 20 minutes' incubation, (B-A)/A×100, read-out: APD75 (%)
Structures can show the parent of a compound that is named as a salt.
property.label: activation at 3 µg/mL (%)
Hi! Could you send only the number? It should be in %, unit omitted.

Fetch value of activation at 3 µg/mL on Purkinje fiber of the right ventricular free wall (myocardial action potential) for CN(CCCN1CCN(c2cc(=O)n(C)c(=O)n2C)CC1)c1ccc([N+](=O)[O-])cc1 [Compound 69, oxalate] .
11

Fetch value of activation at 3 µg/mL on Purkinje fiber of the right ventricular free wall (myocardial action potential) for CCN(CCCc1ccc([N+](=O)[O-])cc1)CCNc1cc(=O)n(C)c(=O)n1C [Compound 4, hydrochloride] .
16

Fetch value of activation at 3 µg/mL on Purkinje fiber of the right ventricular free wall (myocardial action potential) for Cn1c(N2CCN(CCCSc3ccc([N+](=O)[O-])cc3)CC2)cc(=O)n(C)c1=O [Compound 51, oxalate] .
33

Fetch value of activation at 3 µg/mL on Purkinje fiber of the right ventricular free wall (myocardial action potential) for Cn1c(N2CCN(CCCOc3ccc([N+](=O)[O-])cc3Cl)CC2)cc(=O)n(C)c1=O [Compound 141, hydrochloride] .
41

Fetch value of activation at 3 µg/mL on Purkinje fiber of the right ventricular free wall (myocardial action potential) for Cn1c(N2CCN(CCCNc3ccc([N+](=O)[O-])cc3C(=O)c3ccccc3)CC2)cc(=O)n(C)c1=O [Compound 111, oxalate] .
21

Fetch value of activation at 3 µg/mL on Purkinje fiber of the right ventricular free wall (myocardial action potential) for Cn1c(N2CCN(CCOc3ccc([N+](=O)[O-])cc3)CC2)cc(=O)n(C)c1=O [Compound 53, hydrochloride] .
22

Fetch value of activation at 3 µg/mL on Purkinje fiber of the right ventricular free wall (myocardial action potential) for Cn1c(N2CCN(CCCOc3ccccc3[N+](=O)[O-])CC2)cc(=O)n(C)c1=O [Compound 55, hydrochloride] .
18
